List of DC50 values.
- assayTarget: BRD9 (Homo sapiens)
- experimentalProtocol: Degradation of BRD9 (IF), immunofluorescence in MV4-11 cells, 24 hours (Assay Protocol 2)
- Format: cell-based
- Parameters: A suspension of MV4-11 cells (ATCC CRL-9591) was prepared; host or cells: MV4-11
- testParameters: Assay protocol 2; BRD9 degradation; read-out: DC50

compound	DC50
COc1cc(-c2cn(C)c(=O)c(C)c2C)cc(OC)c1CN1CCC(CN(C)c2ccc3c(c2)C(C)N(C(=O)/C(C#N)=C/C(C)(C)C)CC3)CC1 (centres unmarked) [Compound C46]	1.25 to 10 nM

Q: Look up DC50 of COc1cc(-c2cn(C)c(=O)c(C)c2C)cc(OC)c1CN1CCN(Cc2cccc3c2CCN(C(=O)/C(C#N)=C/C(C)(C)C)C3C)C(C(C)C)C1 (mixture of isomers) [Compound B136] and report it.
A: 1.25 to 10 nM

Q: Supply recorded DC50 for COc1cc(-c2cn(C)c(=O)c(C)c2C)cc(OC)c1CN1CCN(Cc2cccc3c2CCN(C(=O)/C(C#N)=C/C(C)(C)C)C3C)C(=O)C1(C)C (mixture of isomers) [Compound B112] here.
A: 10 to 25 nM

Q: For COc1cc(-c2cn(C)c(=O)c(C)c2C)cc(OC)c1CN1CCN(Cc2cccc(C3CCCN3C(=O)/C(C#N)=C/c3nc(C(F)(F)F)cs3)c2)CC1 (centres unmarked) [Compound B56] , write its DC50.
A: < 1.25 nM

###

- assayTarget: BRD9 (Homo sapiens, UniProt Q9H8M2)
- experimentalProtocol: Degradation of BRD9 (IF), immunofluorescence in MV4-11 cells, 24 hours (Assay Protocol 2)
- Assay type: cell-based
- Design: A suspension of MV4-11 cells (ATCC CRL-9591) was prepared; host or cells: MV4-11
- testParameters: MV4-11, 24 h, Table 2; BRD9 degradation (IF), Assay Protocol 2, MV4-11 cells; read-out: Assay 2 DCmax
reportedProperty: Dmax

Reference set (2 entries):
molecule	reportedProperty	reportedMeasurement
COc1cc(-c2cn(C)c(=O)c3cc(C(=O)NCCOc4ccc5c(c4)CCN(C(=O)/C(C#N)=C/c4nccs4)C5C)sc23)cc(OC)c1CN(C)C (mixture of isomers)	Dmax	40 to 70%
COc1cc(-c2cn(C)c(=O)c3cnccc23)cc(OC)c1CN1CCN(Cc2cccc3c2CCN(C(=O)/C(C#N)=C/c2nccs2)[C@@H]3C)CC1 (single isomer, unassigned)	Dmax	40 to 70%

Okay, now this molecule:
Q: Determine its reported Dmax: COc1cc(-c2cn(C)c(=O)c3cc(C(=O)NCCCCCOc4cccc(C5CCCN5C(=O)/C(C#N)=C/c5nccs5)c4)sc23)cc(OC)c1CN(C)C (mixture of isomers)
A: 70 to 75%

###

Recorded DC50, one value per entry.
- assayTarget: BRD9 (Homo sapiens, UniProt Q9H8M2)
- Sequence (Q9H8M2 1-597): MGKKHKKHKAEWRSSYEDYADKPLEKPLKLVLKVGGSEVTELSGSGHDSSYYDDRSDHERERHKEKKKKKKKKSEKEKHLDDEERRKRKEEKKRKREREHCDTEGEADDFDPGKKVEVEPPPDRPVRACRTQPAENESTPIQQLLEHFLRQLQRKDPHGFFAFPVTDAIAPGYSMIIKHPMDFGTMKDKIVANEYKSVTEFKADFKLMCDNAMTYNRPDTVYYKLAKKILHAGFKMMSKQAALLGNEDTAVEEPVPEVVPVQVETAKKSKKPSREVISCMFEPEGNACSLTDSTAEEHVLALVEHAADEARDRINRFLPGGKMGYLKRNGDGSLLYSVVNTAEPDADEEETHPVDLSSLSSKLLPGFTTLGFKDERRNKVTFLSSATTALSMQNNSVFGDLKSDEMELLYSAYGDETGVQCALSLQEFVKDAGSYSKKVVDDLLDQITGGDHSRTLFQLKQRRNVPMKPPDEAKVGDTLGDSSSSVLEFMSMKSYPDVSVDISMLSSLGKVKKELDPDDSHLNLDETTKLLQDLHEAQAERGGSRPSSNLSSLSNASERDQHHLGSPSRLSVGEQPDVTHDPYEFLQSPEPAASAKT
- experimentalProtocol: Degradation of BRD9 (IF), immunofluorescence in MV4-11 cells, 24 hours (Assay Protocol 2)
- Assay type: cell-based
- Design: A suspension of MV4-11 cells (ATCC CRL-9591) was prepared; host or cells: MV4-11
- testParameters: Assay protocol 2; BRD9 degradation; read-out: DC50

molecule	assayTarget	DC50
COc1cc(-c2cn(C)c(=O)c(C)c2C)cc(OC)c1CN1CCN(Cc2cccc3c2CCN(C(=O)/C(C#N)=C/C(C)(C)F)[C@@H]3C)C2(CC2)C1 (single isomer, unassigned) [Compound C20]	BRD9 (Homo sapiens, UniProt Q9H8M2)	< 1.25 nM

Q: Provide measured DC50 on BRD9 (Homo sapiens, UniProt Q9H8M2) for COc1cc(-c2cn(C)c(=O)c(C)c2C)cc(OC)c1CN1CCN(Cc2ccc3c(c2)[C@@H](C(C)C)N(C(=O)/C(C#N)=C/C(C)(C)CF)CC3)C2(CC2)C1 (single isomer, unassigned) [Compound C97] please.
A: 10 to 25 nM

Q: Give BRD9 (Homo sapiens, UniProt Q9H8M2) DC50 for the following molecule: CC[C@H]1c2cccc(CN3CCN(Cc4c(OC)cc(-c5cn(C)c(=O)c(C)c5C)cc4OC)C4(CC4)C3)c2CCN1C(=O)/C(C#N)=C/C(C)(C)C (single isomer, unassigned) [Compound C90]
A: > 1000 nM
